# protein stability index values compiled below
B1: IKZF1 (parent)
chain: YHSQDRYEFSSHITRGEHRFHMS

Variants of: B1
Assay: protein stability index of a GFP-peptide fusion (GPS, HEK-293T) (PSI 1-6); higher = more stable;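 further: lentivirally expressed fusions sorted by FACS into six bins by GFP to DsRed ratio, PSI derived from sequencing read proportions per bin multiplied by bin number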
Conditions: c terminus: native
Please give only the number in your answer, with no unit.

The examples below pair each entry with its known result.
VARIANT_DESCRIPTION | protein stability index
F9Y | 1.95
Y7R | 2.08
R19F | 2.39

Prompt: // protein stability index lookup, key: `I13P`
Completion: 1.78

Prompt: // protein stability index lookup, key: `S3I`
Completion: 2.73

Prompt: // protein stability index lookup, key: `D5S`
Completion: 1.79

Prompt: // protein stability index lookup, key: `H12L`
Completion: 2.06

Prompt: // protein stability index lookup, key: `T14G`
Completion: 1.54

Prompt: // protein stability index lookup, key: `E8Y`
Completion: 3.85

Prompt: // protein stability index lookup, key: `S23G`
Completion: 2

Prompt: // protein stability index lookup, key: `I13F`
Completion: 1.81

Prompt: // protein stability index lookup, key: `D5A`
Completion: 1.5

Prompt: // protein stability index lookup, key: `F9M`
Completion: 2.44

Prompt: // protein stability index lookup, key: `E17A`
Completion: 2.75

Prompt: // protein stability index lookup, key: `S11D`
Completion: 2.01

The measured values listed here are drawn from the supplement of paper PMC10567573.
